tgt: TBK1 (Homo sapiens)
Construct: purchased Promega V3991
Sequence (Q9UHD2 whole entry): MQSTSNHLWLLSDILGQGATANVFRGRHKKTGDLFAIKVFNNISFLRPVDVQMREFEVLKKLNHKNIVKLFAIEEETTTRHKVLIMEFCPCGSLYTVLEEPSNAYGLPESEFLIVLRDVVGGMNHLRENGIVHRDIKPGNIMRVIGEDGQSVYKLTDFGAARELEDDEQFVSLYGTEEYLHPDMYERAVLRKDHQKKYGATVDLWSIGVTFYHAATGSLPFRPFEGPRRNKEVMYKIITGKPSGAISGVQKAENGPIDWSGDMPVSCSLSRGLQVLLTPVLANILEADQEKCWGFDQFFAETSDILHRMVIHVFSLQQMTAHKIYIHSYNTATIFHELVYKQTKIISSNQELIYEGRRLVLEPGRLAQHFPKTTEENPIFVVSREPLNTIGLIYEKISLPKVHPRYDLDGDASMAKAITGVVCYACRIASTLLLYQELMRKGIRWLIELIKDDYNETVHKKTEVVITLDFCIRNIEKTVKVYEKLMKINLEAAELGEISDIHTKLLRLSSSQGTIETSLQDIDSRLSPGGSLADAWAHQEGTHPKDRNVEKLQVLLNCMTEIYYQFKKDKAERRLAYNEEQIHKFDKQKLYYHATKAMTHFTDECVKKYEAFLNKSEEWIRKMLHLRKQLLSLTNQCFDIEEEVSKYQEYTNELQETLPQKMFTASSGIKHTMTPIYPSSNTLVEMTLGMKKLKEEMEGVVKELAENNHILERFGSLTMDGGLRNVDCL
test-details: TBK1 inhibition, ADP-Glo Kinase Assay
Assay type: biochemical
measurement-parameters: luminometer
Structures can show the parent of a compound that is named as a salt.
Checkbox rule: IC50 lower than 0.03 µM = 1; IC50 not lower than 0.03 µM = -1.

[ask] Criterion: IC50 strictly below 0.03 µM. Is it met by COC(=O)c1cc2[nH]nc(-c3ccc(F)cc3)c2s1 ?
[reply] -1

[ask] Criterion: IC50 strictly below 0.03 µM. Is it met by COc1ccc(C(=O)Nc2n[nH]c3ccc(C(=O)NCc4cccs4)cc23)cc1 ?
[reply] -1

[ask] Criterion: IC50 strictly below 0.03 µM. Is it met by CN(Cc1cccs1)C(=O)c1ccc2[nH]nc(NC(=O)c3ccc(N4CCOCC4)cc3)c2c1 ?
[reply] -1

[ask] Criterion: IC50 strictly below 0.03 µM. Is it met by CC[C@@H](NC(=O)c1ccc2[nH]nc(NC(=O)c3ccc(N4CCN(C)CC4)cc3)c2c1)c1cccs1 ?
[reply] 1

[ask] Criterion: IC50 strictly below 0.03 µM. Is it met by CN1CCN(c2ccc(C(=O)Nc3n[nH]c4ccc(C(=O)NC(c5ccccc5)C5CC5)cc34)cc2)CC1 (stereo not shown) ?
[reply] 1

[ask] Criterion: IC50 strictly below 0.03 µM. Is it met by O=C(Nc1n[nH]c2ccc(CNCc3cccs3)cc12)c1ccc(N2CCOCC2)cc1 ?
[reply] -1

[ask] Criterion: IC50 strictly below 0.03 µM. Is it met by C[C@H](NC(=O)c1ccc2[nH]nc(NC(=O)c3ccc(N4CCN(C)CC4)cc3)c2c1)c1ccccc1 ?
[reply] -1

[ask] Criterion: IC50 strictly below 0.03 µM. Is it met by CC[C@H](NC(=O)c1ccc2[nH]nc(NC(=O)c3ccc(N4CCN(C)CC4)cc3)c2c1)c1ccccc1 ?
[reply] -1

[ask] Criterion: IC50 strictly below 0.03 µM. Is it met by CN1CCN(c2ccc(C(=O)Nc3n[nH]c4ccc(C(=O)NC(C)(C)c5ccsc5)cc34)cc2)CC1 ?
[reply] 1

[ask] Criterion: IC50 strictly below 0.03 µM. Is it met by CN1CCN(c2ccc(C(=O)Nc3n[nH]c4ccc(C(=O)NC(c5cccs5)C5CC5)cc34)cc2)CC1 (stereo not shown) ?
[reply] 1

[ask] Criterion: IC50 strictly below 0.03 µM. Is it met by CN1CCN(c2ccc(C(=O)Nc3n[nH]c4ccc(C(=O)C(C(=O)O)c5cccs5)cc34)cc2)CC1 (stereo not shown) ?
[reply] -1

[ask] Criterion: IC50 strictly below 0.03 µM. Is it met by O=C(NCc1cccs1)c1ccc2[nH]nc(NC(=O)c3ccccc3)c2c1 ?
[reply] -1

[ask] Criterion: IC50 strictly below 0.03 µM. Is it met by O=C(Nc1n[nH]c2ccc(C(=O)NC(c3cccs3)C3CC3)cc12)c1ccc(N2CCOCC2)cc1 (stereo not shown) ?
[reply] 1

[ask] Criterion: IC50 strictly below 0.03 µM. Is it met by CN1CCN(c2ccc(C(=O)Nc3n[nH]c4ccc(C(=O)NCC5CCC5)cc34)cc2)CC1 ?
[reply] 1

[ask] Criterion: IC50 strictly below 0.03 µM. Is it met by CSc1ccc(C(=O)Nc2n[nH]c3ccc(C(=O)NCc4cccs4)cc23)cc1 ?
[reply] 1

[ask] Criterion: IC50 strictly below 0.03 µM. Is it met by CC(NC(=O)c1ccc2[nH]nc(NC(=O)c3ccc(N4CCOCC4)cc3)c2c1)c1ccccn1 (stereo not shown) ?
[reply] 1

[ask] Criterion: IC50 strictly below 0.03 µM. Is it met by CC(NC(=O)c1ccc2[nH]nc(NC(=O)c3ccc(N4CCN(C)CC4)cc3)c2c1)c1ccsc1 (stereo not shown) ?
[reply] 1

[ask] Criterion: IC50 strictly below 0.03 µM. Is it met by CCc1cnc(-c2cc3[nH]nc(NC(=O)c4ccc(N5CCOCC5)cc4)c3s2)s1 ?
[reply] -1

[ask] Criterion: IC50 strictly below 0.03 µM. Is it met by Cc1cc(C(=O)Nc2n[nH]c3ccc(C(=O)NCc4cccs4)cc23)ccc1N1CCOCC1 ?
[reply] -1

[ask] Criterion: IC50 strictly below 0.03 µM. Is it met by CC1CN(c2ccc(C(=O)Nc3n[nH]c4ccc(C(=O)NC(C)c5ccccc5)cc34)cc2)CC(C)O1 (stereo not shown) ?
[reply] 1

[ask] Criterion: IC50 strictly below 0.03 µM. Is it met by O=C(Nc1n[nH]c2ccc(CNCc3cccs3)cc12)c1ccc(F)cc1 [Example 31, Hydrochloride] ?
[reply] -1

[ask] Criterion: IC50 strictly below 0.03 µM. Is it met by Cc1cc(N2CCN(C)CC2)ccc1C(=O)Nc1n[nH]c2ccc(C(=O)NCc3cccs3)cc12 ?
[reply] 1

[ask] Criterion: IC50 strictly below 0.03 µM. Is it met by CC(C)(C)OC(=O)N1CCC[C@H]1C(=O)Nc1ccc(C(=O)Nc2n[nH]c3ccc(C(=O)NCc4cccs4)cc23)cc1 ?
[reply] -1

[ask] Criterion: IC50 strictly below 0.03 µM. Is it met by O=C(NCc1ccccn1)c1ccc2[nH]nc(NC(=O)c3ccc(N4CCOCC4)cc3)c2c1 ?
[reply] -1

[ask] Criterion: IC50 strictly below 0.03 µM. Is it met by O=C(Nc1n[nH]c2ccc(C(=O)NC3(c4ccccn4)CC3)cc12)c1ccc(F)cc1 ?
[reply] -1

[ask] Criterion: IC50 strictly below 0.03 µM. Is it met by CCC(NC(=O)c1ccc2[nH]nc(NC(=O)c3ccc(F)cc3)c2c1)c1cccs1 (stereo not shown) ?
[reply] 1

[ask] Criterion: IC50 strictly below 0.03 µM. Is it met by CN1CCN(c2ccc(C(=O)Nc3n[nH]c4ccc(C(=O)NCc5ccccc5F)cc34)cc2)CC1 ?
[reply] 1

[ask] Criterion: IC50 strictly below 0.03 µM. Is it met by CCC(NC(=O)c1ccc2[nH]nc(NC(=O)c3ccc(N4CCN(C)CC4)cc3)c2c1)c1nccs1 (stereo not shown) ?
[reply] 1

[ask] Criterion: IC50 strictly below 0.03 µM. Is it met by CCC(C)(NC(=O)c1ccc2[nH]nc(NC(=O)c3ccc(F)cc3)c2c1)c1cccs1 (stereo not shown) ?
[reply] -1

Origin of values: patent US10294207B2
